target: human NOX4 (Homo sapiens); construct: membrane fraction used; assay: Cell free membrane based in vitro NOX4 assay: H2O2 production by membranes expressing human NOX4, measured with Amplex Red; conditions: class symbols
pIC50: −log10 of the molar value.
assay-metric: pIC50

// worked examples, pIC50 included
[[record]]
compound = "COc1ccc(-c2[nH]c3c(c(C(F)(F)F)nn3C)c(=O)c2O)c(OC)c1 [Example 51]"
value_reported = "< 6.82"

[[record]]
compound = "O=c1c(O)c(-c2c(F)cccc2F)[nH]c2c1c(C1CCOCC1)nn2C1CC1 [Example 190]"
value_reported = "> 7.30"

[[record]]
compound = "CCn1nc(C)c2c(=O)c(O)c(-c3c(F)cccc3F)[nH]c21 [Example 68]"
value_reported = "7.00 to 7.30"

[[record]]
compound = "Cc1noc2[nH]c(-c3ccccc3Cl)c(O)c(=O)c12 [Example 64]"
value_reported = "< 6.82"

[[record]]
compound = "Cn1nc(CN2CCN(CC(F)(F)F)CC2)c2c(=O)c(O)c(-c3c(F)cccc3F)[nH]c21 [Example 220]"
value_reported = "< 6.82"

[[record]]
compound = "CCn1nc(C)c2c(=O)c(O)c(-c3ccc(OCCOC)cc3F)[nH]c21 [Example 120]"
value_reported = "< 6.82"

[[record]]
compound = "COCCn1nc(C)c2c(=O)c(O)c(-c3c(F)cccc3F)[nH]c21 [Example 90]"
value_reported = "7.00 to 7.30"

[[record]]
compound = "Cc1nn(-c2ccc(F)cc2)c2[nH]c(-c3ccccc3Cl)c(O)c(=O)c12 [Example 33]"
value_reported = "> 7.30"


Qu. State the recorded pIC50 for this entry: CCc1nn(CCN2C[C@@H](C)O[C@@H](C)C2)c2[nH]c(-c3ccccc3Cl)c(O)c(=O)c12 [Example 202]
Ans. 6.82 to 7.00

Qu. Param item: COc1ccc(-n2nc(C)c3c(=O)c(O)c(-c4c(F)cccc4F)[nH]c32)cc1 [Example 29]
Ans. 6.82 to 7.00

Qu. Param item: CCc1nn(CCN2CCC(F)(F)CC2)c2[nH]c(-c3c(F)cccc3F)c(O)c(=O)c12 [Example 205]
Ans. 7.00 to 7.30

Qu. Param item: CN(C)CCn1nc(C(F)(F)F)c2c(=O)c(O)c(-c3ccccc3Cl)[nH]c21 [Example 154]
Ans. < 6.82

Qu. Param item: Cc1nn(CCN2CCN(C)CC2)c2[nH]c(-c3c(F)cccc3F)c(O)c(=O)c12 [Example 169]
Ans. 7.00 to 7.30

Qu. Param item: O=c1c(O)c(-c2ccccc2Cl)[nH]c2c1c(C(F)(F)F)nn2C1CCOCC1 [Example 130]
Ans. < 6.82

Qu. Param item: CCn1nc(C)c2c(=O)c(O)c(-c3ccccc3Cl)[nH]c21 [Example 26]
Ans. 7.00 to 7.30

Qu. Param item: CS(=O)(=O)N1CCC(c2nn(C3CC3)c3[nH]c(-c4c(F)cccc4F)c(O)c(=O)c23)CC1 [Example 186]
Ans. < 6.82

Qu. Param item: Cc1nn(-c2ccc(F)c(F)c2)c2[nH]c(-c3c(F)cccc3F)c(O)c(=O)c12 [Example 37]
Ans. 7.00 to 7.30

---

target: human NOX4 (Homo sapiens); construct: expressed in transfected cells; membrane fraction used; assay: Cell free membrane based in vitro NOX4 assay: H2O2 production by membranes expressing human NOX4, measured with Amplex Red; type: biochemical; settings: 1.0 μM compound, read-out: Percentage inhibition at 1.0 μM
Structures can show the parent of a compound that is named as a salt.
assay-metric: inhibition at 1 µM (%)

[[record]]
compound = "Cc1nn(C2CCC2)c2[nH]c(-c3c(F)cccc3F)c(O)c(=O)c12"
value_reported = 92.4

[[record]]
compound = "Cc1nn(CCN(C)C)c2[nH]c(-c3c(F)cccc3F)c(O)c(=O)c12"
value_reported = 100

[[record]]
compound = "Cn1nc(C(F)(F)F)c2c(=O)c(O)c(-c3ccncc3Cl)[nH]c21 [Example 46, hydrochloride]"
value_reported = 73.6


a: CCn1nc(C(F)(F)F)c2c(=O)c(O)c(-c3c(F)cccc3F)[nH]c21
b: CCn1nc(C)c2c(=O)c(OC)c(-c3c(F)cccc3F)[nH]c21
Qu. // pick larger inhibition at 1 µM from pair: a vs b Could you answer with the label of the item you picked?
Ans. a

---

Target: human NOX4 (Homo sapiens)
Construct: expressed in transfected cells; membrane fraction used
Test: Cell free membrane based in vitro NOX4 assay: H2O2 production by membranes expressing human NOX4, measured with Amplex Red
Assay type: biochemical
Details: 10.0 μM compound, read-out: Percentage inhibition at 10.0 μM
Experimental: The inhibition of NOX4 activity was measured as inhibition of formation of reactive oxygen species (ROS) from oxygen in cell free assays. […] Protein concentration was determined by Bradford reagent. H202 production by membranes expressing human NOX4 was measured using Amplex Red (Invitrogen) by following a slightly modified version of the manufacturer's instruction manual. […] IC50 value was calculated from concentration response curve by nonlinear regression analysis using GraphPad PRISM software.
assay-metric: inhibition at 10 µM (%)

[[record]]
smiles_code = "CCc1nn(CCCN2C[C@@H](C)O[C@@H](C)C2)c2[nH]c(-c3c(F)cccc3F)c(O)c(=O)c12"
value_reported = 91.3

[[record]]
smiles_code = "O=c1c(O)c(-c2ccccc2Cl)[nH]c2sc(C(F)(F)F)nc12"
value_reported = 100

[[record]]
smiles_code = "Cn1nc(C2CCN(S(C)(=O)=O)CC2)c2c(=O)c(O)c(-c3ccccc3Cl)[nH]c21"
value_reported = 96

[[record]]
smiles_code = "NC(=O)c1nsc2c(=O)c(O)c(-c3ccccc3Cl)[nH]c12"
value_reported = 89.3


---

target: human NOX4 (Homo sapiens, UniProt Q9NPH5); construct: membrane fraction used; assay: Cell free membrane based in vitro NOX4 assay: H2O2 production by membranes expressing human NOX4, measured with Amplex Red; conditions: class symbols
Sequence (Q9NPH5 whole entry): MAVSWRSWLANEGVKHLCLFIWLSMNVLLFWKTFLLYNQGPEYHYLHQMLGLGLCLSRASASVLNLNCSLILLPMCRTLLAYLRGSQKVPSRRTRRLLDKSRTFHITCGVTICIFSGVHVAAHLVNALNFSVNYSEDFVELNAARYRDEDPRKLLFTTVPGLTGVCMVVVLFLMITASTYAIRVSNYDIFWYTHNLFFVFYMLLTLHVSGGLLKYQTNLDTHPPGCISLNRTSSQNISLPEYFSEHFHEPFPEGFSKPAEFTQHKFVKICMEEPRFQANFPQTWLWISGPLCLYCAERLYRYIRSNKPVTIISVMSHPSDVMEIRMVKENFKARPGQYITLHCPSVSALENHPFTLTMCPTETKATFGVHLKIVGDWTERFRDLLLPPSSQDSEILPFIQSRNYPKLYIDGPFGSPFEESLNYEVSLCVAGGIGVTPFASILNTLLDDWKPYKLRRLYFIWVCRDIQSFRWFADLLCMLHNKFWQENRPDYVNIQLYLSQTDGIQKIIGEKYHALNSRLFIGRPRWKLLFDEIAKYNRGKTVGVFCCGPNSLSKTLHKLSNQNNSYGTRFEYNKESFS
Sequence (P13498 whole entry partner): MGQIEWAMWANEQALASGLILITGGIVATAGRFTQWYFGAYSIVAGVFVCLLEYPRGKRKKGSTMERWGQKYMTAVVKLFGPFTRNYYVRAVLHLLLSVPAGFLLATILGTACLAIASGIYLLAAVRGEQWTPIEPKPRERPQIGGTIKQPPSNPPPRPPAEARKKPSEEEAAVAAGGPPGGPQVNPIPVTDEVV
Counter-ions that a name gives are not always drawn.
# key: entry, value: IC50

// worked examples, IC50 included
[[record]]
molecule = "Cc1nn(-c2ccccn2)c2[nH]c(-c3ccccc3Cl)c(O)c(=O)c12"
value_reported = "> 150 nM"

[[record]]
molecule = "Cn1nc(C(F)F)c2c(=O)c(O)c(-c3c(F)cccc3F)[nH]c21"
value_reported = "> 150 nM"

[[record]]
molecule = "CCn1nc(C(F)(F)F)c2c(=O)c(O)c(-c3ccccc3Cl)[nH]c21"
value_reported = "> 150 nM"

[[record]]
molecule = "CCc1nn(CCN2CCOCC2=O)c2[nH]c(-c3c(F)cccc3F)c(O)c(=O)c12"
value_reported = "50 to 100 nM"

[[record]]
molecule = "CCc1nn(C)c2[nH]c(-c3cc(F)cc(F)c3)c(O)c(=O)c12"
value_reported = "> 150 nM"


Qu. State the recorded IC50 for this entry: Cc1nn(C)c2[nH]c(-c3ccc(Cl)c(C(F)(F)F)c3)c(O)c(=O)c12
Ans. > 150 nM

Qu. Param item: CCc1nn(CCC2CCOCC2)c2[nH]c(-c3ccccc3Cl)c(O)c(=O)c12
Ans. > 150 nM

Qu. Param item: O=c1c(O)c(-c2c(F)cccc2F)[nH]c2c1c(C1CCOCC1)nn2-c1ccc(F)cc1
Ans. 100 to 150 nM

Qu. Param item: Cn1nc(C(F)(F)F)c2c(=O)c(O)c(-c3cc(CNC(=O)C(C)(C)C)ccc3Cl)[nH]c21
Ans. > 150 nM

Qu. Param item: Cc1ccc(F)c(-c2[nH]c3c(c(C)nn3C3CC3)c(=O)c2O)c1F
Ans. > 150 nM

Qu. Param item: CCc1nn(CCC(C)C)c2[nH]c(-c3ccccc3Cl)c(O)c(=O)c12
Ans. 50 to 100 nM

Qu. Param item: Cn1nc(CN2CCOCC2)c2c(=O)c(O)c(-c3ccccc3Cl)[nH]c21
Ans. 100 to 150 nM

Qu. Param item: Cn1nc(C(F)(F)F)c2c(=O)c(O)c(-c3ccncc3)[nH]c21
Ans. > 150 nM

Qu. Param item: Cc1nn(C2CCC2)c2[nH]c(-c3ccccc3Cl)c(O)c(=O)c12
Ans. 50 to 100 nM

Qu. Param item: Cc1nn(CCN2CCN(C)CC2)c2[nH]c(-c3ccccc3Cl)c(O)c(=O)c12 [Example 243, fumarate]
Ans. > 150 nM

Qu. Param item: CCn1nc(C)c2c(=O)c(O)c(-c3ccc(N)cc3F)[nH]c21
Ans. > 150 nM

Qu. Param item: CCn1nc(C)c2c(=O)c(O)c(-c3ccc(F)c(C(F)(F)F)c3F)[nH]c21
Ans. > 150 nM

Qu. Param item: CCn1nc(C)c2c(=O)c(O)c(-c3cc(CNC(=O)C(C)(C)C)ccc3F)[nH]c21
Ans. > 150 nM

Qu. Param item: CCc1nn(C)c2[nH]c(-c3cnc(-c4ccc(F)cc4F)s3)c(O)c(=O)c12
Ans. 100 to 150 nM

Qu. Param item: CCc1nn(C2CC2)c2[nH]c(-c3c(F)cccc3F)c(O)c(=O)c12
Ans. 50 to 100 nM

Qu. Param item: COc1ccc(-c2[nH]c3c(c(C(F)(F)F)nn3C)c(=O)c2O)cc1
Ans. 100 to 150 nM

Qu. Param item: CCc1nn(CCCN2CCOCC2)c2[nH]c(-c3c(F)cccc3F)c(O)c(=O)c12
Ans. 100 to 150 nM

Qu. Param item: COc1ccc(Cl)c(-c2[nH]c3c(c(C)nn3C)c(=O)c2O)c1
Ans. 50 to 100 nM

Qu. Param item: CCCn1nc(CC)c2c(=O)c(O)c(-c3ccc(F)cc3F)[nH]c21
Ans. > 150 nM

Qu. Param item: Cc1nn(Cc2ccc(F)cc2)c2[nH]c(-c3c(F)cccc3F)c(O)c(=O)c12
Ans. > 150 nM

Qu. Param item: Cn1nc(C2CCOCC2)c2c(=O)c(O)c(-c3c(F)cccc3F)[nH]c21
Ans. < 50 nM

Qu. Param item: CCn1nc(C)c2c(=O)c(O)c(-c3cccc(F)c3F)[nH]c21
Ans. > 150 nM
